- Test system: MCF10A
- Test summary: one-nucleolus phenotype percent effect (relative to siNT 0% and siNOL11 100%); higher = more cells with one nucleolus (ribosome biogenesis inhibition)
- Reported conditions: 20 nM; 72 h
Quantity: one-nucleolus phenotype percent effect (%)
Report the figure in % without appending any unit label.

Req: Supply one-nucleolus phenotype percent effect value. Item: ACAGAUUCGAUUCUAGGGGAAU [hsa-miR-10b-3p]
Resp: 15.6

Req: Supply measured one-nucleolus phenotype percent effect of GACAGAGUGCCACUUACUGAA [hsa-miR-4797-5p] in your reply.
Resp: 41.8

Req: Give one-nucleolus phenotype percent effect for CCAGUUUUCCCAGGAUU [hsa-miR-4328]
Resp: -38.7

Req: Provide one-nucleolus phenotype percent effect value for the following sequence: GCAGUAGUGUAGAGAUUGGUUU [hsa-miR-3129-5p]
Resp: -15

Req: Input GGCUGGAGCGAGUGCAGUGGUG [hsa-miR-3135b] , output reported one-nucleolus phenotype percent effect.
Resp: 9.78

Req: For GUAUACACCUGAUAUGUGUAUG [hsa-miR-4789-5p] , write its one-nucleolus phenotype percent effect.
Resp: -15.8
